Molecular target: DN quality control product recombinant protein (a recombinant antigen produced by the company itself) (dengue virus)
Test: AMO sensor, antibody on sensor, antigen in solution
assay metric: koff (s⁻¹)
Dear colleague, please return just the value in s⁻¹, with no unit written.

// worked examples, koff included
>  <binder>
Mutation 1-19 (antibody, V domains shown) VH: QVQLQQSGAELVRPGTSVKISCKASGYTFTEYWIGWVKQRPGHGLEWIGDMFPGDIYINYNEKFKGKATLTADTSSNTAYMQLSSLTSEDSAVYFCTNFITLGGIDYWGRGTSLTVSS VL: DVVMTQTPLTLSVTIGQPASISCKSSNSLLDSDGRTYLNWLLQRPGQSPKRLIYLVSKIDSGVPDRFTGSGSVTDFTLKISRVESEDLGVYYCWYGTHFPHTFGAGTKLEVKR

>  <koff [s⁻¹]>
0.000279

$$$$
>  <binder>
Mutation 1-46 (antibody, V domains shown) VH: QVQLQQSGAELVRPGTSVKISCKASGYTFTEYWIGWVKQRPGHGLEWIGDMFPGDIYINYNEKFKGKATLTADTSSNTAYMQLSSLTSEDSAVYFCTNFITLGGIDYWGRGTSLTVSS VL: DVVMTQTPLTLSVTIGQPASISCKSSNSLLDSDGRTYLNWLLQRPGQSPKRLIYLVSKVDSGVPDRFTGSGSVTDFTLKISRVESEDLGVYYCWYGTHFPHTFGAGTKLEVKR

>  <koff [s⁻¹]>
0.000479

$$$$
>  <binder>
recombinant anti-dengue virus NS1 11E2 antibody (WT) (antibody, mouse IgG2a, kappa, V domains shown) VH: QVQLQQSGAELVRPGTSVKISCKASGYSFTDYWIGWVKQRPGHGLEWIGDMVPGDLYINYQEKFKGKATLTADTSSNTAYMQLSSLTSEDSAVYFCTNFITVGGLDYWGRGTSLTVSS VL: DVVMTQTPLTLSVTIGQPASISCKSSNSLLDSDGKTYLNWLLQRPGQSPKRLIYLVTKIDSGVPDRFTGSGSVTDFTLKISRVESEDLGVYYCWWGTHFPHTFGAGTKLEVKR

>  <koff [s⁻¹]>
0.000398

$$$$

For the next question, use this binder.
Reported koff for WT 1-7 (antibody, V domains shown) VH: QVQLQQSGAELVRPGTSVKISCKASGYSFTEYWIGWVKQRPGHGLEWIGDMVPGDLYINYQEKFKGKATLTADTSSNTAYMQLSSLTSEDSAVYFCTNFITVGGVDYWGRGTSLTVSS VL: DVVMTQTPLTLSVTIGQPASISCKSSQSLLESDGKTYLNWLLQRPGQSPKRLIYLVTKIDSGVPDRFTGSGSVTDFTLKISRVESEDLGVYYCWYGTHFAHTFGAGTKLEVKR was 0.000231
